Provenance of the data: patent US20080182795A1

Target: T1, GLP-1 receptor of βTC3 cells (mouse, UniProt O35659 22-463)
T1 construct: whole, on cells; also called βTC3 cell receptor; GLP-1 receptors
T1 sequence (looked up): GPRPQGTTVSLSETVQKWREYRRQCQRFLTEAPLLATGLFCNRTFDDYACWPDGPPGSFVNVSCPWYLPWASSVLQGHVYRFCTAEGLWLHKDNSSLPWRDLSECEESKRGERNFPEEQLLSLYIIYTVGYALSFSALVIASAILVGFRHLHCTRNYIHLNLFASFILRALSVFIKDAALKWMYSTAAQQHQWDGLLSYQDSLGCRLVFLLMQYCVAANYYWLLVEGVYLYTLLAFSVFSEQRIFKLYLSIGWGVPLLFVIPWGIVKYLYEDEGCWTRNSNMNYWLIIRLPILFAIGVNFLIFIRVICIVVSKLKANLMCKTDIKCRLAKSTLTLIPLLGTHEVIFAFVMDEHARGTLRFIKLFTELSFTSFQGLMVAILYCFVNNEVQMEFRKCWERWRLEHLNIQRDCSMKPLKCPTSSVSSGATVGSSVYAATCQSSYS
Assay: competition with [125I]GLP-1 for binding to βTC3 cells (GLP-1 receptor), room temperature
Where no end group is shown, it is not given here.
Test Readout: IC50

What the record says about ISDYSIAMDKIRQQDFVNWLLAQK-NH2 (also called ANTGIP; ANTGIIP) [GIP (7-30)-NH2] : IC50 is 80 µM
